target-or-test-system: Cytochrome P450 3A4 (Homo sapiens) (UniProt P08684)
Sequence (P08684 whole entry, looked up): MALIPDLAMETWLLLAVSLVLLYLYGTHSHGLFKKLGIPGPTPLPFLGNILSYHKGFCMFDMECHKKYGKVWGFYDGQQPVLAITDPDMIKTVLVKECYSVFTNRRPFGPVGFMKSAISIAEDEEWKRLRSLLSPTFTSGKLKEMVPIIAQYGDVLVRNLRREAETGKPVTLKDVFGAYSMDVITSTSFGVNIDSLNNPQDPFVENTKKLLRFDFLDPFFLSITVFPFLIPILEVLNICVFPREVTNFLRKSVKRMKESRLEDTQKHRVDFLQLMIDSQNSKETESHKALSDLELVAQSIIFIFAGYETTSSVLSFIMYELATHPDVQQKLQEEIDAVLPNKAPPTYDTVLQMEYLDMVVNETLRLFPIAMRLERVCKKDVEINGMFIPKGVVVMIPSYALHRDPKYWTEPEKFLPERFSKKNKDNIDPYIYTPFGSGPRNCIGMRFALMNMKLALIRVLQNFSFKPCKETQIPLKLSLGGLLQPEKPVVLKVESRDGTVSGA
protocol-description: Cytochrome panel assay with activity outcomes
run-parameters: recombinant CYP, pro-luciferin dealkylation, luminescence, p450-cyp3a4; series mostly up to 57.1 µM
Hit rate of the full screen: of about 16,000 compounds, about 5,100 (32%) were called active. Another 25% or so got no clear call; they are omitted. Calls come from the whole dose curve; as a rule, active = well fitted curve in the direction sought with a large enough effect; inconclusive = small, poorly fitted or top-dose-only effect, or effect the other way; inactive = no such curve, though single readings can be large or run the other way. Some of the results follow.
Possible outcomes: class 1 (active), class 0 (inactive)

[[record]]
molecule = "Cc1cccc(CNc2cc(-c3ccccc3Cl)ncn2)c1"
label_value = "class 1"

[[record]]
molecule = "c1ccc2sc(SCSc3nc4ccccc4s3)nc2c1"
label_value = "class 1"

[[record]]
molecule = "CCN1CCN(CCCNC(=O)C(NC(=O)C2CCC(C)CC2)C(C)C)CC1 (stereo unspecified)"
label_value = "class 0"

[[record]]
molecule = "COc1ccccc1-c1cc(NCc2cccc(C)c2)ncn1"
label_value = "class 1"

[[record]]
molecule = "S=c1nc(-c2ccccc2)oc2c1CCCC2"
label_value = "class 0"

[[record]]
molecule = "COc1ccccc1-c1cc(NCc2ccccc2)ncn1"
label_value = "class 0"


---

target-or-test-system: Cytochrome P450 3A4 (Homo sapiens)
protocol-description: Cytochrome panel assay with activity outcomes; for activity, negative = inhibition: % is set by controls: 0 for no effect and ±100 for the full control effect
run-parameters: recombinant CYP, pro-luciferin dealkylation, luminescence, p450-cyp3a4; series mostly up to 57.1 µM
Among all 16,000 compounds or so, about 5,100 (32%) were called active. Roughly 25% stayed inconclusive and do not appear here. The list shows a part of the results.
quantity-measured: activity, negative = inhibition

[[record]]
compound = "O=S(=O)(O)c1ccc2c(N=Nc3cccc4ccccc34)c(O)c(S(=O)(=O)O)cc2c1"
target_or_test_system = "Cytochrome P450 3A4 (Homo sapiens)"
result = "5.97% [at 11.4 µM] (inactive)"

[[record]]
compound = "COc1ccc2c(c1OC)C(=O)OC2Nc1ncccc1C (stereo not given)"
target_or_test_system = "Cytochrome P450 3A4 (Homo sapiens)"
result = "-2.44% [at 2.29 µM] (inactive)"

[[record]]
compound = "Clc1ccc(Cn2c(-c3cccnc3Cl)nc3ccccc32)c(Cl)c1"
target_or_test_system = "Cytochrome P450 3A4 (Homo sapiens)"
result = "-20.9% [at 2.29 µM] (inactive)"

[[record]]
compound = "CC(CC(=O)O)(CC(=O)O)c1ccccc1"
target_or_test_system = "Cytochrome P450 3A4 (Homo sapiens)"
result = "0.682% [at 11.4 µM] (inactive)"

[[record]]
compound = "C[C@@H](N)[C@@H](C)Cc1ccccc1"
target_or_test_system = "Cytochrome P450 3A4 (Homo sapiens)"
result = "-8.05% [at 11.4 µM] (inactive)"

[[record]]
compound = "CC(C)CO/N=C1/C[C@@H](O)[C@@H](O)[C@@H]2[C@@H]3C(=O)N(Cc4ccccc4)C(=O)[C@H]3CC[C@@H]12"
target_or_test_system = "Cytochrome P450 3A4 (Homo sapiens)"
result = "-11.8% [at 11.4 µM] (inactive)"

[[record]]
compound = "COc1ccc(NC(=O)CSc2nnc(C3CC3)n2N)cc1"
target_or_test_system = "Cytochrome P450 3A4 (Homo sapiens)"
result = "-8.56% [at 11.4 µM] (inactive)"

[[record]]
compound = "O=C1[C@H]2[C@H]3[C@H](O)[C@H](O)C/C(=N/OCc4ccccc4)[C@@H]3CC[C@@H]2C(=O)N1C[C@@H]1CCCO1"
target_or_test_system = "Cytochrome P450 3A4 (Homo sapiens)"
result = "-20.3% [at 11.4 µM] (inactive)"

[[record]]
compound = "CC(C)CO/N=C1/C[C@@H](O)[C@@H](O)[C@@H]2[C@@H]3C(=O)N(C[C@@H]4CCCO4)C(=O)[C@H]3CC[C@H]12"
target_or_test_system = "Cytochrome P450 3A4 (Homo sapiens)"
result = "-0.365% [at 11.4 µM] (inactive)"

[[record]]
compound = "COC(=O)c1ccc(NC(=O)c2ccccc2)o1"
target_or_test_system = "Cytochrome P450 3A4 (Homo sapiens)"
result = "-12.8% [at 2.29 µM] (inactive)"

[[record]]
compound = "CCOC(=O)C1=C(CSc2nc(-c3ccccc3)ccc2C#N)OC(N)=C(C#N)C1c1ccc(OC)cc1 (stereo not given)"
target_or_test_system = "Cytochrome P450 3A4 (Homo sapiens)"
result = "-22.9% [at 2.29 µM] (inactive)"

[[record]]
compound = "O=c1/c(=C\\c2ccc(O)cc2)sc2n1C(c1ccccc1)C(c1ccccc1)=NN=2 (stereo not given)"
target_or_test_system = "Cytochrome P450 3A4 (Homo sapiens)"
result = "20.5% [at 0.457 µM] (inactive)"

[[record]]
compound = "Cc1nc(SCC(=O)c2ccc(F)cc2)c([N+](=O)[O-])[nH]1"
target_or_test_system = "Cytochrome P450 3A4 (Homo sapiens)"
result = "5.95% [at 2.29 µM] (inactive)"

[[record]]
compound = "Cc1noc(N)c1C(=O)Nc1ccc(F)cc1"
target_or_test_system = "Cytochrome P450 3A4 (Homo sapiens)"
result = "11.9% [at 2.29 µM] (inactive)"

[[record]]
compound = "CCOC(=O)CCN1C(=O)[C@H]2[C@H]3[C@H](O)[C@H](O)C/C(=N/OCC(C)C)[C@@H]3CC[C@@H]2C1=O"
target_or_test_system = "Cytochrome P450 3A4 (Homo sapiens)"
result = "-27.7% [at 11.4 µM] (inactive)"

[[record]]
compound = "COc1ccc2cc(C(=O)Nc3ccc(F)cc3)sc(=O)c2c1OC"
target_or_test_system = "Cytochrome P450 3A4 (Homo sapiens)"
result = "-4.97% [at 2.29 µM] (inactive)"

[[record]]
compound = "Nc1ccccc1N=Nc1c(S(=O)(=O)O)cc2cc(S(=O)(=O)O)cc(O)c2c1O"
target_or_test_system = "Cytochrome P450 3A4 (Homo sapiens)"
result = "-15.9% [at 11.4 µM] (inactive)"

[[record]]
compound = "COc1ccc(OC)c(/C=N/NC(=O)c2csc3ccccc23)c1"
target_or_test_system = "Cytochrome P450 3A4 (Homo sapiens)"
result = "3.57% [at 2.29 µM] (inactive)"

[[record]]
compound = "O=[N+]([O-])c1ccc2c(c1)Cc1cc(N=Cc3ccc4c(c3)OCO4)ccc1-2"
target_or_test_system = "Cytochrome P450 3A4 (Homo sapiens)"
result = "-16.1% [at 11.4 µM] (inactive)"

[[record]]
compound = "Cc1ccc(C(=O)N/N=C\\c2ccc[nH]2)cc1[N+](=O)[O-]"
target_or_test_system = "Cytochrome P450 3A4 (Homo sapiens)"
result = "16.8% [at 2.29 µM] (inactive)"

